- target: T1, human TIGIT protein (human, UniProt Q495A1 22-141, limits assumed)
- T1 construct: Recombinant protein (Genentech) used in ELISA screening and as SPR analyte; also called TIGIT antigen
- T1 sequence: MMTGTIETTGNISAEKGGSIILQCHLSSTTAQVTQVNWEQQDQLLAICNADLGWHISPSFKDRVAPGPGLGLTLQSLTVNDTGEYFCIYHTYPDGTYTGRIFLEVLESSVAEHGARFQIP
- assayOverview: SPR, monovalent affinity
Can you tell me pKd for the items I'm about to list?
One number for each entry, as −log10 of the molar value.

Below, 3 binders whose answers are already recorded.
>  <binder>
7.4A3.Q1E.C96 (antibody, V domains shown, built from its name as 7.4A3 with Q1E in VH and C96 kept in VL) VH: EVQLVQSGSDLKKPGASVRVSCKASGYTFTSYPMNWVRQAPGHGLEWMGWINTNTGNPTYVQGFTGRFVFSLDTSVNTAYLQISSLKAEDTAVYFCARTGGHTYDSYAFDVWGQGTMVTVSS VL: DIQLTQSPTFLSASVGDRVTITCRASQVISSSLAWYQQNPGKAPKLLIYAASTLQSGVPSRFSGSGSGTEFTLTISSLQPEDFVTYYCQHLHGYPCNFGQGTKVEIK

>  <reportedValue>
8.46

$$$$
>  <binder>
h6B2.L1H1 (antibody, V domains shown, Humanized; FR/HVR pieces in order; also called h1.6B2.L1H1) VH: EVTLKESGPALVKPTQTLTLTCTFSGFSLSTYGMGVSWIRQPPGKALEWLASIWWNGNTYYNPSLKSRLTVTKDASKNQAVLTMTNMDPVDTATYYCAHTGGAVITWFAYWGQGTLVTVSS VL: DIQMTQSPSSLSASVGDRVTITCKASQSVGKNIAWYQQKPGKSPKLLIYYASNRYTGVPSRFSGSGSGTDFTFTISSLQPEDIATYYCQHIYNSPYPFGQGTKVEIK

>  <reportedValue>
9.27

$$$$
>  <binder>
7.4A3.C96S.Q1E (antibody, V domains shown, also called 7.4A3.Q1E.C96S) VH: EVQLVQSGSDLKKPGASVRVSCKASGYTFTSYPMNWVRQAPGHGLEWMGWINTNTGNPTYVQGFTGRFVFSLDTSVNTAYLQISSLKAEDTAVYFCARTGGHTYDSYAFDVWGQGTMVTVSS VL: DIQLTQSPTFLSASVGDRVTITCRASQVISSSLAWYQQNPGKAPKLLIYAASTLQSGVPSRFSGSGSGTEFTLTISSLQPEDFVTYYCQHLHGYPSNFGQGTKVEIK

>  <reportedValue>
8.53

$$$$

Exam item: Identify the reported pKd for the following entry. rat10A5 (antibody, V domains shown, SD rat-derived; rat V domains as FR/HVR pieces; also called 1.10A5; Chimeric 1.10A5) VH: QVSLKESGPGILQPSHTLSLTCSFSGFSLTTYGMGVSWIRQPSEKGLEWLASIWWNGNTYYNPSLRSRLTVSKDTSNDQAFLNVTSVDTTDTATYYCAHTGGAVITWFAYWGQGTLVTVSS VL: NIVMTQSPKSMSISIGDRVTMNCKASQSVGKNIAWYQQKTGQSPQLLIYYASNRYTGVPDRFTGGGSGTDFTLTINSVQAEDAAFFYCQHIYNSPYPFGTGTKLEIK
Marked response: 10.03
